These entries and their values trace back to patent US4966900A.

Test system: S. marcescens GN10857
Measurement Protocol: MIC
Condition Info: Serratia marcescens, GN10857, S. marcescens GN10857; Table 7
Structures can show the parent of a compound that is named as a salt.
The entries below are paired with their reported MIC.
Your answer is read as mg/L, so omit the unit and give the number.

# Compound, MIC / mg/L
records = [
    ("Cc1cc(SCC2=C(C(=O)O)N3C(=O)C(NC(=O)C(=NOC(C)(C)C(=O)NNC(=O)c4ccc(O)c(O)c4)c4csc(N)n4)[C@H]3SC2)n2nc(C)cc2n1 (stereo partly shown) [Example 57]", 1.56),
    ("CC(=O)Oc1ccc(C(=O)NNC(=O)C(C)(C)ON=C(C(=O)NC2C(=O)N3C(C(=O)O)=C(CSc4c(C)c(C)nc5c(C(=O)O)cnn45)CS[C@H]23)c2csc(N)n2)cc1OC(C)=O (stereo partly shown) [Example 47]", 0.39),
    ("Cc1cc(SCC2=C(C(=O)O)N3C(=O)C(NC(=O)C(=NOC(C)(C)C(=O)NNC(=O)c4ccc(O)c(O)c4)c4csc(N)n4)[C@H]3SC2)n2nc(C(F)(F)F)nc2n1 (stereo partly shown) [Example 55]", 1.56),
]

Kindly consider the entry below.
Find the measured MIC: item CC(=O)Oc1ccc(C(=O)NNC(=O)C(C)(C)ON=C(C(=O)NC2C(=O)N3C(C(=O)O)=C(CSc4cc(C)nc5c(C(=O)O)cnn45)CSC23)c2csc(N)n2)cc1OC(C)=O (stereo not shown) [Example 53, sodium salt] , target or system S. marcescens GN10857.
0.78
